Experiment: Cytotoxicity against human BE(2)-C cells assessed as cell proliferation at 6.25 uM incubated overnight by XTT assay relative to control
Format: cell-based
Conditions: read-out: Activity
attribute_measured: viability at 6.25 µM (%)

1. Cc1ccc(S(=O)(=O)N(CCCC(=O)C2CCCCCC2)c2ccccc2)cc1 = 99.5
2. COc1ccc(S(=O)(=O)N(CCCC(=O)C2CCC2)c2ccccc2)cc1 = 93.9
3. COc1ccc(S(=O)(=O)NCCCC(=O)c2ccc(F)cc2)cc1 = 106
4. COc1ccc(S(=O)(=O)N(CCO)c2ccccc2CN(C)C/C=C/c2ccc(Cl)cc2)cc1 = 84.3
5. COc1ccc(S(=O)(=O)N(CCCC(=O)C2CCCCCC2)c2ccc3c(c2)CCCC3)cc1 = 104
6. COc1ccc(S(=O)(=O)N(C)CCCC(=O)c2ccc(F)cc2)cc1 = 106

----------
Tested on: dengue virus type 2
Experiment: Antiviral activity against eGFP-fused Dengue virus 2 infected in human BE(2)-C cells assessed as viral infection level by measuring intensity of eGFP emission from infected cells at 3.13 uM incubated for 24 hrs relative to control
Assay type: functional
Criterion: Activity strictly less than 30%. Met: true. Not met: false.

1) COc1ccc(S(=O)(=O)N(CCCC(=O)C2CCCCCC2)c2ccccc2)cc1 = true
2) COc1ccc(S(=O)(=O)N(CCCC(C)=O)c2ccccc2)cc1 = false
3) COc1ccc(S(=O)(=O)N(C)CCCC(=O)c2ccc(F)cc2)cc1 = false
4) COc1ccc(S(=O)(=O)N(CCCC(=O)C2CCC2)c2ccccc2)cc1 = false
5) COc1ccc(S(=O)(=O)N(CCCC(=O)C2CCCCCC2)c2ccc3c(c2)CCCC3)cc1 = true
6) O=C(CCCN(c1ccccc1)S(=O)(=O)c1ccc(Oc2ccccc2)cc1)C1CCCCCC1 = false
7) COc1ccc(S(=O)(=O)N(CCCC(=O)C2CCCC2)c2ccccc2)cc1 = true
8) O=C(CCCN(c1ccccc1)S(=O)(=O)c1ccc(OC(F)(F)F)cc1)C1CCCC1 = false
9) COc1ccc(S(=O)(=O)N(CCCC(=O)C2CCCCCC2)C2CCCCC2)cc1 = false
10) Cc1ccc(S(=O)(=O)N(CCCC(=O)C2CCCCCC2)c2ccccc2)cc1 = false
11) COc1ccc(S(=O)(=O)N(CCCC(=O)C2C3CC4CC(C3)CC2C4)c2ccccc2)cc1 (stereo not drawn) = false
12) COc1ccc(S(=O)(=O)NCCCC(=O)c2ccc(F)cc2)cc1 = false
13) COc1ccc(S(=O)(=O)N(CCCC(O)c2ccc(F)cc2)c2ccccc2)cc1 (stereo not drawn) = false
14) COc1ccc(S(=O)(=O)N(CCCC(=O)C2CCCCCC2)c2ccc(C3CCCCC3)cc2)cc1 = true
15) COc1ccc(S(=O)(=O)N(CCCC(=O)c2ccc(F)cc2)c2ccccc2)cc1 = false
16) COc1ccc(S(=O)(=O)N(CCCC(=O)C2CCCCC2)c2ccccc2)cc1 = false
17) CN([C@@H](Cc1ccc(OS(=O)(=O)c2cccc3cnccc23)cc1)C(=O)N1CCN(c2ccccc2)CC1)S(=O)(=O)c1cccc2cnccc12 = true
18) COc1ccc(S(=O)(=O)N(CCO)c2ccccc2CN(C)C/C=C/c2ccc(Cl)cc2)cc1 = true
